The reader will find reported pIC50 values listed item by item below.
system-name: Recombinant human renin (Homo sapiens)
Sequence (P00797 67-406): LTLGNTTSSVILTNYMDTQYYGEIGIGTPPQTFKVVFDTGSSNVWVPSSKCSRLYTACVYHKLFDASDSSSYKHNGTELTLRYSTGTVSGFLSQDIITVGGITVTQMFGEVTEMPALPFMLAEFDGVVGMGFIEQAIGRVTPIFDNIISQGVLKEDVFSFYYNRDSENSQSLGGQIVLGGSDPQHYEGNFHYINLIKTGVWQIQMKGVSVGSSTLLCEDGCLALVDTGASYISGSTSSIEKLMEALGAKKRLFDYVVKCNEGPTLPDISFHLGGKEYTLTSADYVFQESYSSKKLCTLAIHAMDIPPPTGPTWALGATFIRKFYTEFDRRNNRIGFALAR
test: Inhibitory activity against human renin (fluorogenic peptide substrate)
Format: biochemical
assay-setup: 50% inhibitory concentration (IC50) against human renin, 37° C. for 1 hour
Note on pIC50: it is the negative log10 of concentration, concentration in mol/L.

Worked examples follow.
>  <compound>
COC(=O)NCCCn1cc([C@@H](C)N(C(=O)[C@H]2CNCCO2)C2CC2)c2ncc(Br)cc21 [Example 114]

>  <system-name>
Recombinant human renin (Homo sapiens)

>  <value-type>
pIC50

>  <test-result>
8.96

$$$$
>  <compound>
COC(=O)NCCCc1cc(C(C)N(C(=O)[C@H]2CNCCO2)C2CC2)sc1C1CCOCC1 (some centres unmarked) [Example 419]

>  <system-name>
Recombinant human renin (Homo sapiens)

>  <value-type>
pIC50

>  <test-result>
8.85

$$$$
>  <compound>
CCOc1ncc([C@@H](C)N(C(=O)[C@H]2CNCCO2)C2CC2)cc1CCCNC(=O)OC [Example 251]

>  <system-name>
Recombinant human renin (Homo sapiens)

>  <value-type>
pIC50

>  <test-result>
9.10

$$$$
>  <compound>
COC(=O)NCCCc1cc([C@@H](C)N(C(=O)[C@H]2CNC[C@@H](C)O2)C2CC2)nn1-c1ccc(C(F)(F)F)cc1 [Example 354]

>  <system-name>
Recombinant human renin (Homo sapiens)

>  <value-type>
pIC50

>  <test-result>
8.85

$$$$
>  <compound>
COC(=O)NCCCc1cc([C@@H](C)N(C(=O)[C@H]2CNCCO2)C2CC2)sc1-c1ccccc1O [Example 264]

>  <system-name>
Recombinant human renin (Homo sapiens)

>  <value-type>
pIC50

>  <test-result>
8.96

$$$$

**Query** Reported pIC50, compound COC[C@H]1CO[C@@H](C(=O)N(C2CC2)[C@H](C)c2nn(CCCNC(=O)OC)c3nc(C)ccc23)CN1 [Example 261] : ____
**Result** 9.15

**Query** // next record COC(=O)NCCCn1cc([C@@H](C)N(C(=O)[C@H]2CN[C@@H](COCc3ccccc3)CO2)C2CC2)nc1C1CCOCC1 [Example 299]
**Result** 9.05

**Query** // same read-out, input: COCCCCc1cc([C@@H](C)N(C(=O)[C@H]2CNCCO2)C2CC2)nn1-c1ccccc1 [Example 232]
**Result** 9.22

* * *

system-name: Recombinant human renin (Homo sapiens, UniProt P00797)
Sequence (P00797 67-406): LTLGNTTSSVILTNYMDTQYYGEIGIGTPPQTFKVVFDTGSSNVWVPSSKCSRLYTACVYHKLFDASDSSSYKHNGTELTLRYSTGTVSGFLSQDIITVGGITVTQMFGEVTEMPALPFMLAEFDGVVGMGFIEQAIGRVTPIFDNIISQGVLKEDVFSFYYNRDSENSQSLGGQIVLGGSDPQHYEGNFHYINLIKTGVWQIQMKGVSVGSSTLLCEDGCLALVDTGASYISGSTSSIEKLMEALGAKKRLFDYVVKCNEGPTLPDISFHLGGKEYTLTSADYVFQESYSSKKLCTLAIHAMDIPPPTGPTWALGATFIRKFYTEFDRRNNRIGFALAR
test: Inhibitory activity against human renin (fluorogenic peptide substrate)
Assay type: biochemical
assay-setup: 50% inhibitory concentration (IC50) against human renin, 37° C. for 1 hour
Listed here: items and their measured IC50.
// note: answer is a bare numeric in nM

See these solved cases before continuing.
>  <compound>
COC(=O)NCCCc1nc(C(C)N(C(=O)[C@H]2CNCCO2)C2CC2)sc1-c1cccnc1 (stereo partly shown) [Example 403]

>  <system-name>
Recombinant human renin (Homo sapiens, UniProt P00797)

>  <units-symbol>
nM

>  <test-result>
3.1

$$$$
>  <compound>
COC(=O)NCCCc1sc([C@@H](C)N(C(=O)[C@H]2CNCCO2)C2CC2)cc1-c1ccc(F)cc1 [Example 428]

>  <system-name>
Recombinant human renin (Homo sapiens, UniProt P00797)

>  <units-symbol>
nM

>  <test-result>
8.1

$$$$
>  <compound>
COC(=O)NCCCn1nc([C@H](C)N(C(=O)[C@H]2CNCCO2)C2CC2)cc1OC(C)C [Example 326]

>  <system-name>
Recombinant human renin (Homo sapiens, UniProt P00797)

>  <units-symbol>
nM

>  <test-result>
0.4

$$$$

// below: IC50 requested for another compound
**Query** Param item = COC(=O)NCCCn1cc([C@@H](C)N(C(=O)[C@H]2CNCCO2)C2CC2)nc1-c1cccc(C)c1 [Example 178] ; retrieve measured IC50.
**Result** 0.3
